METHOD_DESCRIPTION: growth inhibition, single agents and combos, LFS_MB_1R, cell-based, cisplatin or BGB combos, synergistic combos for chromothripsis tumors (AID 1671452);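 note: cells exposed for 96 hours before readout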
TEST_CONTEXT: LFS_MB_1R medulloblastoma cells, measured here: combination with cisplatin, at 5 µM, stronger effect = higher value
For each record, write down the corresponding inhibition.
Report only the number, with the unit % understood.

Problem: Identify measured inhibition corresponding to CCCCc1nc2cc(/C=C/C(=O)NO)ccc2n1CCN(CC)CC
Solution: 97.5

Problem: For the compound O=c1cc(N2CCOCC2)oc2c(-c3cccc4c3sc3ccccc34)cccc12 , report inhibition.
Solution: -3.55

Problem: Using the record for O=c1[nH]c([C@@H]2CCCN2)nc2c1oc1ccc(Cl)cc12 , state its measured inhibition.
Solution: -10.2

Problem: Note down inhibition recorded for CN[C@@H]1CN(c2ccc3c(=O)c(C(=O)O)cn(-c4nccs4)c3n2)C[C@H]1OC
Solution: 92.8

Problem: Give inhibition for the following compound: COc1cc(C=O)c([N+](=O)[O-])cc1OC
Solution: -37.8

Problem: Provide only the value of recorded inhibition for C[C@]12CCCN1CC1=NNC(=O)c3cc(F)cc4[nH]c2c1c34
Solution: 1.25

Problem: // Input: O=C(O)[C@H](Cc1c[nH]c2ccccc12)N1C(=O)c2ccccc2C1=O . Output its inhibition only.
Solution: -81.2

Problem: Hello, please tell me recorded inhibition for this one: O=c1[nH]cnc2ccccc12
Solution: -38.3

Problem: Tell me inhibition reported for Nc1ncnc2c1c(-c1cnc3[nH]ccc3c1)nn2C1CCCC1
Solution: 69.1

Problem: Item NC(=O)c1nc(F)c[nH]c1=O : provide inhibition
Solution: 16.6

Problem: Let me know recorded inhibition for CC(=O)[C@]1(N)Cc2c(O)c3c(c(O)c2[C@@H](O[C@H]2C[C@H](O)[C@H](O)CO2)C1)C(=O)c1ccccc1C3=O , thanks.
Solution: 81.1

Problem: Item N=C1CCCN1Cc1[nH]c(=O)[nH]c(=O)c1Cl : provide inhibition
Solution: -5.77

Problem: Specify measured inhibition for CN(C)C/C=C/C(=O)Nc1ccc(C(=O)Nc2cccc(Nc3ncc(Cl)c(-c4c[nH]c5ccccc45)n3)c2)cc1 .
Solution: 97.5

###

METHOD_DESCRIPTION: JHH-DIPG-1 glioma cell viability, MIPE5.0 library, CellTiter-Glo luminescence, qHTS (AID 1347067);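 note: cells exposed to compound for 48 hours before readout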
TEST_CONTEXT: JHH-DIPG-1 glioma viability, CellTiter-Glo ATP luminescence
Results filed as inconclusive are left out. Calls of active or inactive are those of the source. Cut-off not given; nearly all actives show AC50 up to about 26 µM.
Could you please pick one outcome from this set? true for active, false for inactive

Problem: State the result this test recorded for C[C@]12CC[C@H](O)CC1=CC[C@@H]1[C@@H]2CC[C@]2(C)C(c3cccnc3)=CC[C@@H]12 .
Solution: false

Problem: Could you kindly confirm the outcome this assay logged for CNC(=O)Cn1cc(-c2ccc3c(c2)C(F)CC32NC(=O)N(CC(=O)N(Cc3ccc(F)cc3)[C@@H](C)C(F)(F)F)C2=O)cn1 (some centres undefined) ?
Solution: false

Problem: Returns: the outcome recorded for CCNC(=O)Nc1ncc(-c2cc(-c3c(C)cc(OC)cc3C)nc(-c3cnccn3)n2)s1 in this assay.
Solution: false

Problem: Could you please tell me the result logged for C[C@@H]1COCCN1c1cc(=O)n2c(n1)N(Cc1cncc(Cl)c1)[C@H](C(F)(F)F)CC2 in this assay?
Solution: false

Problem: Any idea what this test logged for COc1ccc2nc3n[nH]c(C)c3c(NCCOCCO)c2c1 ?
Solution: false

Problem: Status in this test for C=C1CCC[C@]2(C)C=C3OC(=O)C(C)=C3C[C@@H]12 ?
Solution: false

Problem: // param item: O=C(Cc1ccc(-c2ccc(OCCN3CCOCC3)cc2)cn1)NCc1ccccc1 ; yields the recorded call
Solution: true

Problem: Record request — test call for CCNc1cc(NC2CCC(O)CC2)nc(Nc2ccc3c(ccn3Cc3ccccc3)c2)n1 (centres undefined)
Solution: true

Problem: Please indicate how the test categorized C=C1[C@H](CO)[C@@H](O)C[C@@H]1n1cnc2c(=O)[nH]c(N)nc21 .
Solution: false

Problem: Could you kindly confirm the outcome this assay logged for Cc1c(NC(=O)OCC2COCCN2)cn2ncnc(Nc3ccc4c(cnn4Cc4cccc(F)c4)c3)c12 (centres undefined) ?
Solution: true

Problem: Could you check what this test reported for CN[C@@H](C)C(=O)N[C@@H]1C(=O)N(Cc2c(C)ccc3ccccc23)c2ccc(C#N)cc2N(C(C)=O)[C@H]1C ?
Solution: false

Problem: Test call for this molecule, please: Nc1cccc2c1C(=O)N(C1CCC(=O)NC1=O)C2=O (centres undefined)
Solution: false

Problem: How was COc1cc(-c2cn(C)c(=O)c3cnccc23)c(OC)cc1CN(C)C classified in this test?
Solution: false

Problem: Identify the outcome logged in this assay for the molecule shown: Cn1cc(-c2ccc(S(=O)(=O)n3ccc(/C=C/C(=O)Nc4ccccc4N)c3)cc2)cn1
Solution: true

Problem: For this molecule, state the assay outcome: Cc1cnc(Nc2ccc(CN3CCOCC3)cc2)nc1Nc1cccc(S(=O)(=O)NC(C)(C)C)c1
Solution: true

Problem: Hi team, can someone confirm the assay call for COc1ccc(CNc2nc(N(CCO)CCO)nc3c2ncn3C(C)C)cc1 ?
Solution: true

Problem: What was the test verdict on C[C@@H]1CC[C@@]2(OC1)OC1CC3C4CC=C5CC(O)CCC5(C)C4CCC3(C)C1[C@@H]2C (some centres undefined) ?
Solution: false

Problem: Outcome? C=CC(=O)N1CCC[C@@H](n2nc(-c3ccc(Oc4ccccc4)cc3)c3c(N)ncnc32)C1
Solution: true

Problem: Entry Cc1c(C(=O)Nc2ccc(Oc3ccnc4[nH]cc(-c5ccccc5)c34)c(F)c2)c(=O)n(-c2ccc(F)cc2)n1C : call = ?
Solution: true
